Below are MIC values recorded for Septoria tritici (ATCC 26517).

In [3]: df
Out[3]:
                                   molecule       result
0  N#Cc1ccc(COc2ccc(C(F)(F)C(O)(Cn3cnnn3)c3ccc(F)cc3F)nc2)c(F)c1 (stereo not drawn)  ≤ 0.5 µg/mL
1  OC(Cn1cnnn1)(c1ccc(F)cc1F)C(F)(F)c1ccc(OCc2ccc(F)c(F)c2)cn1 (stereo not drawn)  ≤ 0.5 µg/mL
2  OC(Cn1cnnn1)(c1ccc(F)cc1F)C(F)(F)c1ccc(Oc2ccccc2)cn1 (stereo not drawn)  ≤ 0.5 µg/mL
3  OC(Cn1cnnn1)(c1ccc(F)cc1F)C(F)(F)c1ccc(Oc2cccc(F)c2)cn1 (stereo not drawn)  ≤ 0.5 µg/mL
4  OC(Cn1cnnn1)(c1ccc(F)cc1F)C(F)(F)c1ccc(OCc2ccc(C(F)(F)F)nc2)cn1 (stereo not drawn)  ≤ 0.5 µg/mL

Attention now shifts to the item below.
The molecule OC(Cn1cnnn1)(c1ccc(F)cc1F)C(F)(F)c1ccc(Oc2ccc(C(F)(F)F)cn2)cn1 (stereo not drawn) , when measured on Septoria tritici (ATCC 26517), yielded MIC of ≤ 0.5 µg/mL

* * *

Septoria tritici (ATCC 26517) measurements of MIC, listed per entry.

>>> print(df.to_string())
                                   compound  measurement_kind          result
0  N#Cc1ccc(Oc2ccc(C(F)(F)C(O)(Cn3cnnn3)c3ccc(F)cc3F)nc2)c(F)c1 (stereo not shown)               MIC     ≤ 0.5 µg/mL
1  OC(Cn1cnnn1)(c1ccc(F)cc1F)C(F)(F)c1ccc(OCc2ncc(F)cc2F)cn1 (stereo not shown)               MIC  1.5 to 4 µg/mL
2  OC(Cn1cnnn1)(c1ccc(F)cc1F)C(F)(F)c1ccc(Oc2ccc(F)c(F)c2)cn1 (stereo not shown)               MIC     ≤ 0.5 µg/mL
3  OC(Cn1cnnn1)(c1ccc(F)cc1F)C(F)(F)c1ccc(OCc2ccc(F)cc2F)cn1 (stereo not shown)               MIC     ≤ 0.5 µg/mL
4  OC(Cn1cnnn1)(c1ccc(F)cc1F)C(F)(F)c1ccc(OCc2ccc(Cl)cc2)cn1 (stereo not shown)               MIC     ≤ 0.5 µg/mL

Lab book: MIC of N#Cc1ccc(COc2ccc(C(F)(F)C(O)(Cn3cnnn3)c3ccc(F)cc3F)nc2)s1 (stereo not shown) noted as ≤ 0.5 µg/mL

Briefly, MIC measured for COc1ccc(Oc2ccc(C(F)(F)C(O)(Cn3cnnn3)c3ccc(F)cc3F)nc2)cc1 (stereo not shown) : > 4 µg/mL

Entry under test: CC(C)COc1ccc(C(F)(F)C(O)(Cn2ncnn2)c2ccc(Cl)cc2F)nc1 (stereo not shown) . Its MIC was > 4 µg/mL

According to the records, this compound N#Cc1ccc(COc2ccc(C(F)(F)C(O)(Cn3ncnn3)c3ccc(F)cc3F)nc2)cc1 (stereo not shown) displays MIC of 1.5 to 4 µg/mL

Per the records, this compound ( OC(Cn1cnnn1)(c1ccc(F)cc1F)C(F)(F)c1ccc(OCc2ccc(F)cc2)cn1 (stereo not shown) ) has MIC equal to 0.5 to 1.5 µg/mL

The compound listed as OC(Cn1cnnn1)(c1ccc(F)cc1F)C(F)(F)c1ccc(OCc2ccc(Cl)nc2)cn1 (stereo not shown) shows MIC equal to ≤ 0.5 µg/mL

Value of MIC reported for the compound OC(Cn1cnnn1)(c1ccc(F)cc1F)C(F)(F)c1ccc(Oc2ncc(C(F)(F)F)cc2Cl)cn1 (stereo not shown) is ≤ 0.5 µg/mL

For reference, reported MIC for OC(Cn1ccnn1)(c1ccc(F)cc1F)C(F)(F)c1ccc(OCc2cccc(F)c2F)cn1 (stereo not shown) stands at 1.5 to 4 µg/mL

Where do these numbers come from? They come from patent US8748461B2.
